# Lookup of reported %Inh keyed by entry
System: NIM1;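 also: KINOMEscan kinase panel screen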
Construct: gene MGC42105
Settings: concentration: 1 μM, replicates: in singlicate; n = 1
READOUT NAME: %Inh (%)

compound=COc1ccc(-c2coc3ccc(-c4nnc(SCc5cccc(C#N)c5)o4)cc23)cc1 target_desc=NIM1 readout_name=%Inh reported_measurement=5
compound=O=c1cc(N2CCOCC2)nc2n(Cc3ccc(F)c(Cl)c3)ccn12 target_desc=NIM1 readout_name=%Inh reported_measurement=17
compound=Cc1c(Cn2c(C)nn3c(=O)cc(N4CCO[C@H](C)C4)nc23)cccc1C(F)(F)F target_desc=NIM1 readout_name=%Inh reported_measurement=0
compound="Cc1nnc(-c2ccc3ncn(-c4ccc(S(C)=O)cc4)c3c2)o1 (stereo not shown)" target_desc=NIM1 readout_name=%Inh reported_measurement=0
compound=FC(F)(F)c1ccc(-c2ncn(CCCN3CCOCC3)c2-c2ccncc2)cc1 target_desc=NIM1 readout_name=%Inh reported_measurement=26
compound=CCC(=O)c1c(-c2ccccc2)c2cc(Cl)ccc2c(=O)n1Cc1cc(S(C)(=O)=O)n(CC(N)=O)n1 target_desc=NIM1 readout_name=%Inh reported_measurement=14
compound=COC(=O)c1c(-c2ccccc2)c2cc(Br)ccc2c(=O)n1Cc1ccc(NC(=O)CCC(=O)O)cc1 target_desc=NIM1 readout_name=%Inh reported_measurement=2
compound=Cn1c(=O)c(F)c(Nc2ccc(I)cc2F)c2c(=O)n(OC[C@H](O)CO)cnc21 target_desc=NIM1 readout_name=%Inh reported_measurement=0
compound=Nc1ncnc2c1ncn2-c1cccc2ccccc12 target_desc=NIM1 readout_name=%Inh reported_measurement=13
compound=COc1cc2ncn(-c3cc(OCCCc4ccccc4)c(C(N)=O)s3)c2cc1OC target_desc=NIM1 readout_name=%Inh reported_measurement=0
compound=COc1cccc(-n2cnc3c(N)ncnc32)c1 target_desc=NIM1 readout_name=%Inh reported_measurement=61
compound=COc1cc(OC)cc(-c2cc3cnc(N)nc3nc2NC(=O)NC(C)(C)C)c1 target_desc=NIM1 readout_name=%Inh reported_measurement=0
compound="COc1cc(Nc2nccc(N3CCC(NC(=O)C(C)c4ccc(Cl)cc4)C3)n2)cc(OC)c1OC (stereo not shown)" target_desc=NIM1 readout_name=%Inh reported_measurement=0
compound=CCc1nc(-c2cccc(C)c2)c(-c2ccncc2)s1 target_desc=NIM1 readout_name=%Inh reported_measurement=0
compound=COc1ccc(-c2cc3c(C)nc(N)nc3n([C@H]3CC[C@H](OCCO)CC3)c2=O)cn1 target_desc=NIM1 readout_name=%Inh reported_measurement=21
compound="COc1ccc(CNC(=O)NC2CCN(c3ccnc(Nc4ccc(F)cc4)n3)C2)cc1 (stereo not shown)" target_desc=NIM1 readout_name=%Inh reported_measurement=0
compound=Cc1cccc(-c2nc(Nc3ccc4c(cnn4C)c3)c3ccccc3n2)n1 target_desc=NIM1 readout_name=%Inh reported_measurement=16
compound=COC(=O)c1c(-c2ccccc2)c2cc(C)ccc2c(=O)n1Cc1ccccc1 target_desc=NIM1 readout_name=%Inh reported_measurement=0
compound=O=C(Nc1n[nH]c2cc(-c3ccccc3F)ccc12)C1CC1 target_desc=NIM1 readout_name=%Inh reported_measurement=0
compound=COc1cc(Nc2ccnc3ccc(C(F)(F)F)cc23)cc(OC)c1OC target_desc=NIM1 readout_name=%Inh reported_measurement=85
compound=CCC(=O)c1c(-c2ccccc2)c2cc(Cl)ccc2c(=O)n1Cc1ccc(C(=O)O)cc1 target_desc=NIM1 readout_name=%Inh reported_measurement=0
compound="COc1ccc(Nc2nccc(N3CCC(NS(=O)(=O)c4ccc(NC(C)=O)cc4)C3)n2)cc1 (stereo not shown)" target_desc=NIM1 readout_name=%Inh reported_measurement=11
compound=CCS(=O)(=O)c1ccc(OC)c(Nc2ncc(-c3ccc(F)cc3)o2)c1.Cl target_desc=NIM1 readout_name=%Inh reported_measurement=5
compound=COc1cc2ncn(-c3cc(OCc4ccncc4)c(C(N)=O)s3)c2cc1OC target_desc=NIM1 readout_name=%Inh reported_measurement=0
compound="COc1cc(Nc2nccc(N3CCC(NC(=O)C4COc5ccccc5O4)C3)n2)cc(OC)c1OC (stereo not shown)" target_desc=NIM1 readout_name=%Inh reported_measurement=28
compound="CCS(=O)c1ccc(-c2coc3ccc(-c4nnc(C)o4)cc23)cc1 (stereo not shown)" target_desc=NIM1 readout_name=%Inh reported_measurement=11
compound=Cl.NS(=O)(=O)c1cccc(Nc2cc(-c3ccc(F)cc3)n[nH]2)c1 target_desc=NIM1 readout_name=%Inh reported_measurement=3
compound=O=C1NC(=O)C(c2ccccc2)=C1Nc1cccc(O)c1 target_desc=NIM1 readout_name=%Inh reported_measurement=100
compound=Nc1ncnc2c1ncn2-c1cccc(F)c1 target_desc=NIM1 readout_name=%Inh reported_measurement=48
compound=COc1cc2ncn(-c3cc(OCc4ccc(S(C)(=O)=O)cc4)c(C(N)=O)s3)c2cc1OC target_desc=NIM1 readout_name=%Inh reported_measurement=45
compound=Nc1n[nH]c2nnc(-c3ccccc3)c(-c3ccccc3)c12 target_desc=NIM1 readout_name=%Inh reported_measurement=28
compound=CCn1c(-c2nonc2N)nc2ccccc21 target_desc=NIM1 readout_name=%Inh reported_measurement=2
compound=COc1cc2ncn(-c3cc(OCc4ccncc4Br)c(C(N)=O)s3)c2cc1OC target_desc=NIM1 readout_name=%Inh reported_measurement=10
compound=O=C(Nc1n[nH]c2nc(-c3ccccc3)c(Br)cc12)C1CC1 target_desc=NIM1 readout_name=%Inh reported_measurement=9
compound=Cc1cc(Nc2nc(-c3cccc(C)n3)nc3ccccc23)ccn1 target_desc=NIM1 readout_name=%Inh reported_measurement=0
compound=Nc1nc(N)c2nc(-c3ccccc3)[nH]c2n1 target_desc=NIM1 readout_name=%Inh reported_measurement=0
compound=COC(=O)c1c(-c2ccccc2)c2cc(Br)ccc2c(=O)n1Cc1ccc(S(C)(=O)=O)cc1 target_desc=NIM1 readout_name=%Inh reported_measurement=15

The values you see were collected from paper PMC5540273.
